// reported ED50 per item
test system: Rattus norvegicus; assay: Antiinflammatory activity in po dosed Wistar rat assessed as inhibition of carrageenan-induced paw edema administered 1 hr prior to carrageenan challenge measured after 3 hrs of carrageenan challenge; type: functional
Outcome Measure: ED50 (mg/kg)

INSERT INTO measurements (mol, outcome_measure, unit_of_measurement, measured_number) VALUES
  ('O=C(O)Cc1ccc2c(c1)C(=O)c1ccccc1CO2', 'ED50', 'mg/kg', 6.4),
  ('O=C(O)CCCCCCCc1ccc2c(c1)C(=O)c1ccccc1CO2', 'ED50', 'mg/kg', 11.7),
  ('COc1ccc2c(c1)c(CC(=O)O)c(C)n2C(=O)c1ccc(Cl)cc1', 'ED50', 'mg/kg', 4.4),
  ('O=C(O)CCCCCc1ccc2c(c1)C(=O)c1ccccc1CO2', 'ED50', 'mg/kg', 18.2),
  ('O=C(O)CCCc1ccc2c(c1)C(=O)c1ccccc1CO2', 'ED50', 'mg/kg', 10.1);

The measured values listed here are drawn from ChEMBL document CHEMBL3272004.
